TESTED SYSTEM: T1, cynomolgus Hepcidin-25 (cynomolgus, UniProt A7XEI3 60-84, not fully specified)
T1 construct: mature
T1 peptide: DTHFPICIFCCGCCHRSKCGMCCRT
TEST PROTOCOL: direct ELISA on cynomolgus hep-25, mutein titrated
PROPERTY MEASURED: pKd
Note on units: pKd is unitless, being -log10 of a concentration expressed in mol/L.

[[record]]
binder = "lipocalin mutein of SEQ ID NO: 7 (designed binder, also called Lcn2 mutein) QDSTSDLIPAPPLSKVPLQQNFQDNQFHGKWYVVGLAGNRVLREDKDPQKMFATIYELKEDKSYNVTGVDFRTKKCLYSIGTFVPGSQPGEFTLGVIKSQPGWTSYLVRVVSTNYNQHAMVFFKTVWQNREVFWITLYGRTKELTSELKENFIRFSKSLGLPENHIVFPVPIDQCIDG"
reported = 9.66


q: Reported pKd, binder lipocalin mutein of SEQ ID NO: 8 (designed binder, also called Lcn2 mutein) QDSTSDLIPAPPLSKVPLQQNFQDNQFHGKWYVVGLAGNEVLREDKDPMKMWATIYELKEDKSYNVTIVMPLAEKCEYLFQTFVPGSQPGEFTLGGIKSGPGRTSGLVRVVSTNYNQHAMVFFKVVWQNREVFWVTLYGRTKELTSELKENFIRFSKSLGLPENHIVFPVPIDQCIDG : ____
a: 9.17
